system: Cav3.2 (Homo sapiens, UniProt O95180)
Sequence (O95180 whole entry, looked up): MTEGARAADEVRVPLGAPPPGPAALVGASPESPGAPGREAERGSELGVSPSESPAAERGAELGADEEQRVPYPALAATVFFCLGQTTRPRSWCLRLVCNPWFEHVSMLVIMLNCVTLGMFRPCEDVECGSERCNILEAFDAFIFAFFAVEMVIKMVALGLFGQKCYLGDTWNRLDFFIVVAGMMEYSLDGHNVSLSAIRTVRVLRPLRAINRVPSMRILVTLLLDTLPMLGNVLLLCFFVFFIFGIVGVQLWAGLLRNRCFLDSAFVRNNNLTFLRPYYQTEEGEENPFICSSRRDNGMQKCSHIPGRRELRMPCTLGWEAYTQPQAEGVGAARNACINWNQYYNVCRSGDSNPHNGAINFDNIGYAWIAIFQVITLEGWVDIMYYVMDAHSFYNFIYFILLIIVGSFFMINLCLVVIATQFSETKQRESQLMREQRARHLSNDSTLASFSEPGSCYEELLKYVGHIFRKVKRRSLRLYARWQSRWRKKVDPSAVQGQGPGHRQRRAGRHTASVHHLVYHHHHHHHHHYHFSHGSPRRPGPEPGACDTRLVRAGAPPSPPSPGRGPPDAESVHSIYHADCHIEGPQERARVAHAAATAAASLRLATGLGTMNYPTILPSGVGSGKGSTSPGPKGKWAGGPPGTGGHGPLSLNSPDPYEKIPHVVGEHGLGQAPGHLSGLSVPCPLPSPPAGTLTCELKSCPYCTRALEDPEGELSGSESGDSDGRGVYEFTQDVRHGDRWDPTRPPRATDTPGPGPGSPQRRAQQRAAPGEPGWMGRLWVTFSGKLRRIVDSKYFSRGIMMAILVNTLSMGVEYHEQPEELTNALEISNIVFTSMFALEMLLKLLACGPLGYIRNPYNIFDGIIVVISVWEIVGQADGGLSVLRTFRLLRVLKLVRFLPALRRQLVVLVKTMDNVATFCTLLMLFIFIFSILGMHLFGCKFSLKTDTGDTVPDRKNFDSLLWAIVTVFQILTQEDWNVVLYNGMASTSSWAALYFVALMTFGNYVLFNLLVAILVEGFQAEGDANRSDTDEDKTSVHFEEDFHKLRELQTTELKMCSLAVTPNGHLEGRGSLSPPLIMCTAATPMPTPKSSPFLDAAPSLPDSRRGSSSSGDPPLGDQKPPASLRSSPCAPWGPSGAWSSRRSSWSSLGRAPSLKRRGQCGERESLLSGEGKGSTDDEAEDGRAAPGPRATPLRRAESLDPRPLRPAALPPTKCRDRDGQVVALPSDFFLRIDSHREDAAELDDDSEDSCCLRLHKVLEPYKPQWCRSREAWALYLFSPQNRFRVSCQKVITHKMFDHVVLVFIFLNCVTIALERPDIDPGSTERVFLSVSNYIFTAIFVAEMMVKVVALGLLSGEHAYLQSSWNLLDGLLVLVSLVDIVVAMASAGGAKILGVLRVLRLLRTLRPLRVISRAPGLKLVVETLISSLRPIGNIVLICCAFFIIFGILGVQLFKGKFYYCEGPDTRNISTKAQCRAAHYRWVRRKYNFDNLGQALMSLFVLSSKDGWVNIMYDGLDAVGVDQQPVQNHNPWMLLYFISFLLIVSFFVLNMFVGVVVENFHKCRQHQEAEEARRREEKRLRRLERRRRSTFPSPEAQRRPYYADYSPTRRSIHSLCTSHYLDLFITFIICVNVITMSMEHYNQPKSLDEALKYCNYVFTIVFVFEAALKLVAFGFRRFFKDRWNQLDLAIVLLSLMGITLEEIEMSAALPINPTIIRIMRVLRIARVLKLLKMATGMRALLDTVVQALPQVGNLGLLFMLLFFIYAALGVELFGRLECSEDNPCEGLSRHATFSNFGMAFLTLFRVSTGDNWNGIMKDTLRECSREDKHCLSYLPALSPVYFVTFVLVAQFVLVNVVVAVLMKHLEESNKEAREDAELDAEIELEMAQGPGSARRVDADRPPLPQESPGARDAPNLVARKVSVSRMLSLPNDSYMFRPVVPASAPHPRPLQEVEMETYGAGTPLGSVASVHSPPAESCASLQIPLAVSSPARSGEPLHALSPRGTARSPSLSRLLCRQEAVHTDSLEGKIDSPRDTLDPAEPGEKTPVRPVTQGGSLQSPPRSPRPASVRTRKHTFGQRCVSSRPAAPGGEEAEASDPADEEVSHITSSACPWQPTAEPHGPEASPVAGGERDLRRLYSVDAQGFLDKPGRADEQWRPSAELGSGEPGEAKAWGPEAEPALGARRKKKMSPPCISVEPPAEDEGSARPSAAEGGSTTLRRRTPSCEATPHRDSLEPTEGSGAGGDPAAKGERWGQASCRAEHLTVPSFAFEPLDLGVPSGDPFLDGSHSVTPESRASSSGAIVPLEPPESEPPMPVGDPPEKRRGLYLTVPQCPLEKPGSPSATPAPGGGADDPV
assay.info: Calcium flux FLIPR assay, HEK293 cells recombinantly expressing Cav3.2
test.context: Cav3.2-channel, Ca2+ entry stimulated by 10 mM CaCl2
Procedure: In Vitro Methods—Measurement of Calcium Channel Flux by Means of FLIPR Assays. […] Stock solutions of test compounds are prepared to a concentration of 10 mM in DMSO. […] The kinetics of fluorescence increase are recorded for every well and the area under the fluorescence trace for every compound concentration is used to generate inhibition curves using non-linear regression sigmoidal concentration-response curve analysis with in-house software. […]
For each of the molecules below, state its IC50.
A number alone suffices; assume nM.

What value of measured IC50 is listed for COc1ccc(Cn2ncc(NC(=O)Cc3ccc(C4(C(F)(F)F)CC4)cc3)n2)cc1C#N [Example 203] ? 220

What value of measured IC50 is listed for CC(C)c1ccc(CC(=O)Nc2cnn(Cc3ccc(F)c(F)c3)n2)cc1 [Example 5] ? 30

What value of measured IC50 is listed for COC1(c2ccc(CC(=O)Nc3cnn(Cc4ccc(F)c(F)c4)n3)cc2)COC1 [Example 20] ? 89

What value of measured IC50 is listed for COc1ccc(Cn2ncc(NC(=O)Cc3ccc4cnn(C)c4c3)n2)cc1F [Example 121] ? 290

What value of measured IC50 is listed for Cc1ccc(Cn2ncc(NC(=O)Cc3ccc4c(cnn4C)c3)n2)cc1 [Example 69] ? 20

What value of measured IC50 is listed for Cc1cn(C)c2ccc(CC(=O)Nc3cnn(Cc4ccc(C#N)c(F)c4)n3)cc12 [Example 140] ? 14

What value of measured IC50 is listed for COc1ccc(Cn2ncc(NC(=O)Cc3ccc(C(C)(C)C)cc3)n2)cc1C#N [Example 202] ? 320

What value of measured IC50 is listed for Cc1cc(Cn2ncc(NC(=O)Cc3ccc4c(c3)c(C)nn4C)n2)ccc1C#N [Example 169] ? 96

What value of measured IC50 is listed for Cn1ncc2cc(CC(=O)Nc3cnn(Cc4ccc(OC(F)F)c(F)c4)n3)ccc21 [Example 179] ? 22

What value of measured IC50 is listed for COc1cc(Cn2ncc(NC(=O)Cc3ccc(N4CCC(F)(F)C4)nc3)n2)ccc1F [Example 115] ? 45

What value of measured IC50 is listed for CC(C)c1ccc(CC(=O)Nc2cnn(Cc3ccc(F)c(C#N)c3)n2)cc1 [Example 174] ? 28

What value of measured IC50 is listed for COc1ccc(Cn2ncc(NC(=O)Cc3ccc(C4(F)COC4)cc3)n2)cc1F [Example 127] ? 110

What value of measured IC50 is listed for N#Cc1ccc(Cn2ncc(NC(=O)Cc3ccc(N4CCCC4)nc3)n2)cc1 [Example 98] ? 83

What value of measured IC50 is listed for COc1ccc(Cn2ncc(NC(=O)Cc3ccc4c(cnn4C)c3)n2)cc1C#N [Example 208] ? 600

What value of measured IC50 is listed for Cc1cc(CC(=O)Nc2cnn(Cc3ccc(C#N)cn3)n2)ccc1OCC(F)(F)F [Example 242] ? 54

What value of measured IC50 is listed for COc1c(F)cc(Cn2ncc(NC(=O)Cc3ccc(N4CCC(F)(F)C4)nc3)n2)cc1F [Example 147] ? 13

What value of measured IC50 is listed for Cn1ncc2ccc(CC(=O)Nc3cnn(Cc4ccc(C#N)cc4)n3)cc21 [Example 101] ? 480

What value of measured IC50 is listed for CCn1ncc2cc(CC(=O)Nc3cnn(Cc4cc(F)c(F)c(OC)c4)n3)ccc21 [Example 220] ? 190

What value of measured IC50 is listed for COc1ccc(Cn2ncc(NC(=O)Cc3ccc(C4(OC)COC4)cc3)n2)cc1F [Example 122] ? 360

What value of measured IC50 is listed for N#Cc1ccc(Cn2ncc(NC(=O)Cc3ccc(N4CCCC4)nc3)n2)cc1F [Example 75] ? 87

What value of measured IC50 is listed for N#Cc1ccc(Cn2ncc(NC(=O)Cc3ccc(OCC4COC4)cc3)n2)cc1F [Example 131] ? 210

What value of measured IC50 is listed for CC(C)(C)c1ccc(CC(=O)Nc2cnn(Cc3ccc(OC(F)(F)F)c(F)c3)n2)cc1 [Example 184] ? 83

What value of measured IC50 is listed for COc1c(F)cc(Cn2ncc(NC(=O)Cc3ccc4c(cnn4C)c3)n2)cc1F [Example 82] ? 23

What value of measured IC50 is listed for COc1ccc(Cn2ncc(NC(=O)Cc3ccc(C4(F)COC4)cc3)n2)cc1C#N [Example 214] ? 250

What value of measured IC50 is listed for COc1ccc(Cn2ncc(NC(=O)Cc3ccc(N4CCCC4)nc3)n2)cc1 [Example 62] ? 120

What value of measured IC50 is listed for Cn1ccc2cc(CC(=O)Nc3cnn(Cc4ccc(OC(F)(F)F)cc4)n3)ccc21 [Example 91] ? 7.4
